Target: CFTR (Homo sapiens, UniProt P13569)
Sequence (P13569 whole entry): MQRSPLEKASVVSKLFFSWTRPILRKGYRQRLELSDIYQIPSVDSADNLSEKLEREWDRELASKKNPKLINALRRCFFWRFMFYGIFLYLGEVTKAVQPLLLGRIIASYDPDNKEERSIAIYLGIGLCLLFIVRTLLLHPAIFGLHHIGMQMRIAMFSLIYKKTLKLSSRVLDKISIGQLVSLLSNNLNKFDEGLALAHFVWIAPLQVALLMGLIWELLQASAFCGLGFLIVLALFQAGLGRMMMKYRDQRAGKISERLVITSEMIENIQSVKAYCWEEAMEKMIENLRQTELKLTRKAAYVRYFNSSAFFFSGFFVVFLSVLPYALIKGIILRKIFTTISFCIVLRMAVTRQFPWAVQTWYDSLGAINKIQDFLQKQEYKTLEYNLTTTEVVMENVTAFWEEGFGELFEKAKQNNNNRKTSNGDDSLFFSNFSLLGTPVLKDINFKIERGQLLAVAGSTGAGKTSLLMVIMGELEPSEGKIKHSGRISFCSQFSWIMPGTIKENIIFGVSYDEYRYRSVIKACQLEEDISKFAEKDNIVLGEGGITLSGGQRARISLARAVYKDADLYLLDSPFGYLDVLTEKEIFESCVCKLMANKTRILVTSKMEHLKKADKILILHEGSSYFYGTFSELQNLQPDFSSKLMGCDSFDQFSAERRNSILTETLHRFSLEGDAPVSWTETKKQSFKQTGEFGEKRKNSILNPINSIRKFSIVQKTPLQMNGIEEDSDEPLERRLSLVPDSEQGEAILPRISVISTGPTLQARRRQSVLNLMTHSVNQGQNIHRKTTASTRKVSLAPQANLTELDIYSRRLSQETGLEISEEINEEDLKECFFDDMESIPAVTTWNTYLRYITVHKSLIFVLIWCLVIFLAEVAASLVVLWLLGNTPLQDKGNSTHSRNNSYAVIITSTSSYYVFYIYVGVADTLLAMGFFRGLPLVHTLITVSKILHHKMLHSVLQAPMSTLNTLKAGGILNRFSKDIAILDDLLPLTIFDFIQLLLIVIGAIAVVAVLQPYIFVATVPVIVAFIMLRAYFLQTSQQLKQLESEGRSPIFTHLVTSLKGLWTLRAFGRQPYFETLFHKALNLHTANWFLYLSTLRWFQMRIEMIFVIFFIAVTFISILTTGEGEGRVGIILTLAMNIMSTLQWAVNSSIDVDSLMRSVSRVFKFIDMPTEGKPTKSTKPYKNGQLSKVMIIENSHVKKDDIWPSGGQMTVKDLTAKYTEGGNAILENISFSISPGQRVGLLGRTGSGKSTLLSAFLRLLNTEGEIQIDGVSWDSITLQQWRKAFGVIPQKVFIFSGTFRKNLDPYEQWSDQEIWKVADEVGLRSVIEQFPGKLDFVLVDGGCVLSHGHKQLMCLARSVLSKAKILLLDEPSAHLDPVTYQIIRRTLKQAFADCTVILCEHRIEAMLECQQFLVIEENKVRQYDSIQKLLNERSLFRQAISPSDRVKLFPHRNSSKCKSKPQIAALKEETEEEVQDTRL
Assay: T84 assay (FLIPR membrane potential dye, forskolin/IBMX-stimulated CFTR channel activity)
Details: average of at least 2 runs unless annotated n = 1
MEASURED ATTRIBUTE: IC50 (µM)
Supply the numeric figure in µM, leaving out any unit text.

# COMPOUND, IC50 [µM]
rows = [
    ("O=S(=O)(Nc1cccc(-c2ccc(OCCc3ccc(Cl)cc3)nn2)c1)C(F)(F)F [Compound 2]", 5.79),
]

Noted for CCN(Cc1ccccc1)c1ccc(-c2cccc(NS(C)(=O)=O)c2)nn1 [Compound 7] : its IC50 reads 2.23

###

Target: CFTR (Homo sapiens)
Assay: T84 assay (FLIPR membrane potential dye, forskolin/IBMX-stimulated CFTR channel activity)
Details: average of at least 2 runs unless annotated n = 1
The label Condition met is reserved for IC50 strictly under 10 µM; Condition not met covers values equal to or above it.

## Task IC50 under 10 µM? Item: COc1ccc(S(=O)(=O)NC(=O)c2cccc(-c3ccc(OCCc4ccc(Cl)cc4)nn3)c2)cc1
## Result Condition not met
